assay.name: soluble fraction after stress (log2 fold change); higher = more stays soluble; pooled small domains, quantitative proteomics
assay.context: stress: 50 degC
Records here are stratified by soluble fraction (log2); strata: bin 1 = under -0.05, bin 2 = from -0.05 up to 0.02, bin 3 = 0.02 and over

{"sequence.string": "HMIMTIYEYIARNNPTGAKRVIESFGYVVTQPKKMGDNLRMLVAQEGEPALKAVVDLHPDKDLILEV", "cat": "bin 1"}
{"sequence.string": "HMAGTPAVVKWFNPTKGFGFVTPREAGSDALLHASVLAKQGKRWLQEGTVVEVVLEEGPKGLVVSEVLTIE", "cat": "bin 1"}
{"sequence.string": "HMALPQPDDDRQDTKKRILDMAEDLLLTRGFNAFSYQHISSELGMKNAAIHYHYPKKNDLGVAVIQRYRRR", "cat": "bin 3"}
{"sequence.string": "HMGILPDDVKLNIKEAKKIGFPIMLKAIHGGGGRGMMIVQSEDEFADAMKITKTEAKNSFGNGDLYFEKFF", "cat": "bin 3"}
{"sequence.string": "HMRLATSELVYRIRALIRDQELQPGERLGSERALAQSLGISRSDLRMALAVLEASHEVIRKIGRAGGIVVS", "cat": "bin 1"}
{"sequence.string": "HMEQISDEDTLRKMVNEVLDNNQTQLEQYKSGKTNLIGFFVGQTLKKSAGKANPSIVNKLVNEEIYI", "cat": "bin 2"}
{"sequence.string": "HMITNEDINIKKLLVVMKDTPLSANEIMDKLNIKSKETLRNMYLDPAIKKGLINLTIPDKPTSKNQKYYK", "cat": "bin 1"}
{"sequence.string": "HMSLPKIVVPTDVTVSQLAKYLEVDAISIIKQLFGMGVVASLNQRLEDEIIQLIGNEFGKEIIFSE", "cat": "bin 1"}
{"sequence.string": "HMAPDNDELEKAKKIVNAFIEAKAKGLGVVSLGTKMIDAPVVKRAQKIIDQTIVMGKLSLNWQDEFFN", "cat": "bin 2"}
{"sequence.string": "HMEQPAPSTTVDILGGGRAALVTANRELGLALADDEIDYLTDSFTQLGRNPVDVELMMFAQA", "cat": "bin 2"}
{"sequence.string": "HMRHLSVPSQDTQQVLQRLKVELALPEGARVRSDPSDPGRRLIPFTESVPQEMIDQYPVVSINI", "cat": "bin 3"}
{"sequence.string": "HMAAYRLIPLGNSNKDFETYQEAIQYMRDKLDESSKAFEEGKQNWVYSGRVYGVPWSDGRTTFTVDLVPKV", "cat": "bin 3"}
{"sequence.string": "HMVLIQNEDVKDISNYPLLSSVPVFDVFNNKMIIPTFNKDSFNPLIYNFNFNSKRRLIYRVDNTNYLIVIK", "cat": "bin 2"}
{"sequence.string": "HMSEPTLESLRAEGAHHYDPARFHYLEVLARRMPGQHAAVQQVLASRLREAVAAYAGRRSLI", "cat": "bin 1"}
{"sequence.string": "HMGLSIPLMGAKASDIEISTLNDEVQRKLKIIVKEQGHENLQRVVPLPSEAREIQAHFINGRLHLR", "cat": "bin 2"}
{"sequence.string": "HMAQLPADMSKVKSADISEAQLQEFIQKATSSGYNMNQIEMEFAKRGMSENEVSLLRPRLRRLMAS", "cat": "bin 2"}

* * *

soluble fraction (log2) reference
assay.name: soluble fraction after stress (log2 fold change); higher = more stays soluble; pooled small domains, quantitative proteomics
assay.context: stress: 50 degC

{"sequence.string": "HMQLSQLLQPFDINAFKGHPLYTEENVKMFNDYTNRVKEWTKGTPYEQYWVTKEGQPTMLAWDSFKK", "soluble fraction (log2)": -0.972}
{"sequence.string": "HMSDSISLTLNGDLRRFRAHATIADLVRDIGLDPVKVAVERNLEIVSRSTLEDVVLADGDRLEIVHFV", "soluble fraction (log2)": -1.33}
{"sequence.string": "HMKDHKSKWMAKTELDSIAKNLSKKHAISLDYEEDGTRFYAGGQSPLGIGRLFTVFVAPRNGHWSDQLR", "soluble fraction (log2)": 0.189}
{"sequence.string": "HMDSPRITMDQLRIGLYVYLDLTWFQHPFAFSHFKINSEDQIKTILGLGLKSVRYDPALSDPV", "soluble fraction (log2)": -2.67}
{"sequence.string": "HMSSSYTEMQLDKLKKLLEKETLLSSEKSELKSLIHDFDKIPEVVSPLIVGEYLRLKNKYIAVINSLE", "soluble fraction (log2)": -0.214}
{"sequence.string": "HMGHASPGNREALQFALERHQARAAEFAEKAGLSIANASTKFKQLWEQGFLMRNESVADSGGVEFLYQR", "soluble fraction (log2)": -0.0221}
{"sequence.string": "HMKLSALRDKIKEHLLRQIQNGELQVGKTINLAALSRVTGISVTPIREALTQLEQAQVIQAVPNRGFVVA", "soluble fraction (log2)": 0.00526}
{"sequence.string": "HMLILDTDGRYVIKRGDSLSEILEKIANGSNINLNLLKRAFVTANPKAFKRANPNWMYANAR", "soluble fraction (log2)": -0.113}

* * *

assay.name: soluble fraction after stress (log2 fold change); higher = more stays soluble; pooled small domains, quantitative proteomics
assay.context: stress: 50 degC
soluble fraction (log2) reference
parameter: soluble fraction (log2)

{"sequence.string": "HMKFTPPTLEQIKNEMLLKTDEYNADIQSDRFFTYYDSNGWMVGKNKMKKFLVSLVAVFAATSA", "endpoint.value": -0.446}
{"sequence.string": "HMNNQILYERLRDLRERNHFTQAFVSSKLNIGRATYSNYERGKRTPSLDVIMDLASFYKVPFTYF", "endpoint.value": -0.0166}
{"sequence.string": "HMENTSPMTPEQSKALMAYLTKRHGDSREAYLSELSQFFGRPLSSSRELTKADVSEFLNAIN", "endpoint.value": 0.161}
{"sequence.string": "HMSSGLLTVQEQRILEHLANGERNGDIAGRLHISEGTVKWHLHNMYRKLDAATRTQAVARARALRL", "endpoint.value": -0.109}

* * *

assay.name: soluble fraction after stress (log2 fold change); higher = more stays soluble; pooled small domains, quantitative proteomics
assay.context: stress: 50 degC
The threshold is inclusive: soluble fraction (log2) of exactly -0.6 counts as Fulfilled; values below receive Not fulfilled.

{"sequence.string": "HMTTGLETYPGKIAVVSDDFIDGEGRVQLDGALWRAKTKDHQQLKQGDHVTIVNVKGLTLTVMPDD", "cat": "Fulfilled"}
{"sequence.string": "HMPVPSPAEQTATQLANIERHTGITVDGWTRAIAEAGAAKHGEIVAWLKQQGLTHGNANALAHAVRARQSG", "cat": "Fulfilled"}
{"sequence.string": "HMIAVLKQGVSKQQVENLITWFRSRGLDVHISEGKFQTIIGLIGDTSKVDIDLLNGLEIIESVKRI", "cat": "Fulfilled"}
{"sequence.string": "HMVMAELRISVDRLQIGNYIKLPLSWRDHPFLLSSFMIKKEEQIQLIRQLRLKHVFIIPEKSDAPPKPA", "cat": "Not fulfilled"}
{"sequence.string": "HMTEKIRLTVDEAGKNQRVDKYISTLLTQFSRSSIKTWIETGNILLDNTRTKPRTLLSPGQVIDIQPRFED", "cat": "Not fulfilled"}
{"sequence.string": "HMPFESEMKHWIHLFAHELNLKVSDKYTQKIIEIFGNNFSEIFNEMSKSSLVSSNEKDLLNALEKSGNIH", "cat": "Not fulfilled"}
{"sequence.string": "HMTKAEVLLDLQQRIISEEFLPGSWLVERDLSSEYGLSRTPIREILNKLVILGLISVQKNRGYQVR", "cat": "Not fulfilled"}
{"sequence.string": "HMSSLKKISIDELSPGMYVHSIVEQKGSVKIKSQGKVLKQAVVDALRKRGVKTLLIDLSKQFNPETGEP", "cat": "Fulfilled"}

* * *

assay.name: soluble fraction after stress (log2 fold change); higher = more stays soluble; pooled small domains, quantitative proteomics
assay.context: stress: 50 degC
The threshold is inclusive: soluble fraction (log2) of exactly 0.1 counts as true; values below receive false.

{"sequence.string": "HMHAGQIISQKIKESGISISHVAKHLKVQRATLYNLFEREVWPAHRLRTIEALLHIDLSDLYP", "cat": "false"}
{"sequence.string": "HMESPLNPTDVRRAAMDLLARREHGVEELRLKLKRRFGREEDFETIATEQLQRLVDEDLLSDTRF", "cat": "false"}
{"sequence.string": "HMTPKVAVPSFVGWKFEDVERQLGTMGLIRGKVDNHPSEEYSEGRVIWQSVLGEVEKGKVIDFWVSTGPE", "cat": "false"}
{"sequence.string": "HMKLTKPKLIQLIHIAKSKLNMDELSYRVLLDNLTGKTSTTKMTVGELLKVYESMKDKGFKPQV", "cat": "false"}
{"sequence.string": "HMEPDDLTVIKGIGPVAAKDLNEQGIITFAQLAKLSDKDVAKIDEHMPFSADQIKDWREQAKELAK", "cat": "true"}
{"sequence.string": "HMERPKSLRELALEHLRNSIIDGSLKMGQVLSERKISEELGVSKSPVREALAQLRDEGLVSIEPQKGARV", "cat": "true"}
{"sequence.string": "HMDPERVVGQTGIVHLRIPARQHNTGKVMIEVQGSLREFDAVSEAEEIPTGTPILIVGRTEEGVFIAQPF", "cat": "false"}
{"sequence.string": "HMSEFVIPLAKYNKALYTQVSLGMRFRMLFETEDSGVRRYMGTITGIGDLDPIRWKNSHWRNLQV", "cat": "true"}
